Where do these numbers come from? They come from patent US11912789.

- test_system: Lymphocyte-specific protein tyrosine kinase (Lck), enzyme in cell-free kinase assay (human, UniProt P06239 1-509, limits assumed)
- Sequence (P06239 whole entry): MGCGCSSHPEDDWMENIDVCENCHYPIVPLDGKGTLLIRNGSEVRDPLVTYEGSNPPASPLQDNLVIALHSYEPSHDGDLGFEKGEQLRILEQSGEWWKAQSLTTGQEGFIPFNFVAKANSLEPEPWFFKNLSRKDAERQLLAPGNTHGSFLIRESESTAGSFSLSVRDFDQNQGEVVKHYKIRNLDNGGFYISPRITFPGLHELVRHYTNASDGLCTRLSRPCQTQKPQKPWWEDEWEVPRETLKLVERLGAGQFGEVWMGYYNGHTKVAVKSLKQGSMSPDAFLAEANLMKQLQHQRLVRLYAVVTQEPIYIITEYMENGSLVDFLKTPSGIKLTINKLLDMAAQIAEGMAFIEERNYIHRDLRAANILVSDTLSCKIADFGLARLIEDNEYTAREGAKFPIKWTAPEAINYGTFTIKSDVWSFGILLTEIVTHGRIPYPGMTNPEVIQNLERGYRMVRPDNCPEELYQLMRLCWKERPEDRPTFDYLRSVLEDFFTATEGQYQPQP
- test_method_notes: cell-based or functional assay
Field: Lck Activation above control, 1 µM. Provide a value for each of the binders that follow.
Number in %, nothing else.

// Lck Activation above control, 1 µM lookup, key: `RSAAKNPLY`
0

Note, next up: `RYLPNKAKS`
0

Note, next up: `KEKLKNPLF`
0
